measured on: HLA-A*11:01
assay comment: IEDB peptide-MHC binding, purified MHC/direct/fluorescence; filed as Kd, often an IC50 or EC50 that approximates it; bounds were set here for any values at or beyond the usual limits of such assays
reported conditions: source organism: Salmonella enterica subsp. enterica serovar Typhimurium
endpoint name: Kd (nM)

{"primary sequence": "RVNKGTGVK", "recorded value": 60.6}

###

measured on: HLA-B*46:01
assay comment: IEDB peptide-MHC binding, purified MHC/direct/fluorescence; filed as Kd, often an IC50 or EC50 that approximates it; bounds were set here for any values at or beyond the usual limits of such assays
reported conditions: source organism: Cowpox virus
endpoint name: Kd

{"primary sequence": "YTDLTYQSF", "recorded value": "≥ 20 µM"}

###

measured on: HLA-B*18:01
assay comment: IEDB peptide-MHC binding, purified MHC/competitive/fluorescence; filed as Kd, often an IC50 or EC50 that approximates it; bounds were set here for any values at or beyond the usual limits of such assays
reported conditions: source organism: Bacillus anthracis str. A0488
pKd: −log10 of the molar value.

{"primary sequence": "MFKNFPFFK", "pKd": "≤ 4.70"}

###

measured on: HLA-B*15:17
assay comment: IEDB peptide-MHC binding, purified MHC/competitive/fluorescence; filed as Kd, often an IC50 or EC50 that approximates it; bounds were set here for any values at or beyond the usual limits of such assays
reported conditions: source organism: Orthomarburgvirus marburgense
pKd: −log10 of the molar value.

{"primary sequence": "ARHGEYAPF", "measured on": "HLA-B*15:17", "pKd": "≤ 4.70"}

###

Form field: Kd (one value per entry).
measured on: HLA-B*45:06
assay comment: IEDB peptide-MHC binding, purified MHC/competitive/fluorescence; filed as Kd, often an IC50 or EC50 that approximates it; bounds were set here for any values at or beyond the usual limits of such assays
reported conditions: source organism: human gammaherpesvirus 4

{"primary sequence": "FLDKGTYTL", "Kd": "≥ 5 µM"}
{"primary sequence": "WPTPKTHPV", "Kd": "≥ 5 µM"}
{"primary sequence": "EVFFGLSRY", "Kd": "≥ 5 µM"}
{"primary sequence": "VPRPRFSAL", "Kd": "≥ 20 µM"}

###

Parameter Kd: see the listing below.
measured on: HLA-A*01:01
assay comment: IEDB peptide-MHC binding, purified MHC/direct/fluorescence; filed as Kd, often an IC50 or EC50 that approximates it; bounds were set here for any values at or beyond the usual limits of such assays
reported conditions: source organism: Homo sapiens
endpoint name: Kd (nM)

{"primary sequence": "KCDICTDEY", "recorded value": 806}
{"primary sequence": "YVDHYYRDY", "recorded value": 92.3}
{"primary sequence": "YFDPANGKF", "recorded value": 3600}
{"primary sequence": "GSDGGLDDY", "recorded value": 58.1}

###

pKd by entry:
measured on: HLA-B*51:01
assay comment: IEDB peptide-MHC binding, purified MHC/competitive/fluorescence; filed as Kd, often an IC50 or EC50 that approximates it; bounds were set here for any values at or beyond the usual limits of such assays
reported conditions: source organism: Homo sapiens
pKd: −log10 of the molar value.

{"primary sequence": "LMQCWQLLA", "pKd": "≤ 4.70"}
{"primary sequence": "WMFRIRIIL", "pKd": "≤ 4.70"}
{"primary sequence": "LLAMTFWPA", "pKd": "≤ 4.70"}
